- experimental-protocol: gradient 5% acetonitrile 3 min, to 50% in 2 min, to 85% in 15 min, held 3 min, 100 µL/min
- condition: column: Zorbax Extend-C18 2.1 x 50 mm; eluents: water / acetonitrile, 0.1% formic acid
parameter-measured: RP-LC retention time (s)
Answers are plain numbers, in s.

> print(dat)
                                   compound  observed.result
1  CCn1cnc2ccc(-c3noc(COc4ccc(F)cc4)n3)cc21              754

// batch mode: one RP-LC retention time value per listed entry
1. CCCCNc1cc(Cl)nc(N)n1
2. Cc1cc(N2CCN(C(=O)Nc3ccccc3C)CC2)nc(N2CCCC2)n1
3. Cc1ccccc1-c1noc(Cn2c(=O)n(Cc3ccc4c(c3)OCO4)c(=O)c3sccc32)n1
4. Cc1ccccc1NC(=O)Cn1nc(N2CCCC(C)C2)c2ccccc2c1=O (stereo unspecified)
5. COCCn1c(CC2CCN(C(=O)Nc3ccc(F)c(Cl)c3)C2)nc2cccnc21 (stereo unspecified)

[690, 651, 1110, 1120, 660]

Required: RP-LC retention time, one value per compound below.
1. Cn1c(NC(=O)C2CC2)cc(=O)n(C)c1=O
2. Cc1ccc(NC(=O)Cn2nc(N3CCOCC3)c3ccccc3c2=O)c(C)c1
3. c1cncc(-c2nc(-c3ccc4c(c3)nnn4CCN3CCCCC3)no2)c1

[605, 809, 614]

Batch request: RP-LC retention time for each of the following compounds.
1. Cc1ccccc1C(=O)NCc1ccc2c(c1)ncn2C
2. COc1ccc(CCC(=O)NCCCn2cccc2)cc1
3. CCC(C)N(CCNC(=O)Cn1c(=O)oc2ccccc21)Cc1cccs1 (stereo unspecified)
4. CCC(CC)NC(=O)C1CCN(c2cn[nH]c(=O)c2)CC1
5. COc1ccccc1CNC(=O)C1CCN(c2cc(N3CCOCC3)ncn2)CC1
6. O=C(Nc1cc(-c2cccs2)no1)c1cccc(F)c1

576
757
652
604
619
959

Hi, could you look up RP-LC retention time for each item in my list?
1. Cc1ccc(NC(=O)Cn2cccc2-c2nnc(C3CCC3)o2)cc1F
2. Cc1ccc(Cn2cc(-c3ccncc3)cc2C(=O)NC(C)c2ccccn2)cc1 (stereo unspecified)
3. CC(C)NC(=O)N1CCC2(CC1)Nc1cc(F)ccc1-n1cccc12
4. O=C(CCc1c(-c2ccccc2)nc2ccccn12)Nc1cccc(F)c1
5. O=C(COc1ccc(Cl)cc1Cl)NCC(=O)N1CCOC(c2ccccc2)C1 (stereo unspecified)
6. O=S(=O)(NCC(c1cccnc1)c1c[nH]c2ccccc12)c1ccc2c(c1)CCCC2 (stereo unspecified)

973
620
895
692
927
790

----------
Provide the recorded RP-LC retention time for the entries that follow.
- experimental-protocol: gradient 5% acetonitrile 3 min, to 50% in 2 min, to 85% in 15 min, held 3 min, 100 µL/min
- condition: column: Zorbax Extend-C18 2.1 x 50 mm; eluents: water / acetonitrile, 0.1% formic acid
Numbers only, in s.

> print(dat)
                                   compound  value.unit  observed.result
1  CC1=C(c2ccc(C)cc2)S(=O)(=O)N=C1N1CCCN(C(=O)C2CCOC2)CC1 (stereo not drawn)           s              732
2    CCc1sc(NC(=O)Cc2ccc(F)cc2)nc1-c1ccccc1           s             1110
3  CCc1ccccc1NC(=O)Cc1csc2nc(-c3ccc(C)c(C)c3)cn12           s              928
4  O=C(NCc1ccc2c(c1)OCO2)C1CCCN(S(=O)(=O)c2c[nH]c(C(=O)N3CCCC3)c2)C1 (stereo not drawn)           s              738
5  COc1ccc(CNC(=O)N2CCC(N3CCN(Cc4ccccc4)C(=O)C3=O)CC2)cc1           s              702
6  CC(C)S(=O)(=O)Nc1ccc2c(c1)CN(C(=O)c1ccco1)CC2           s              685

Please give RP-LC retention time, item by item, for the list that follows.
1. COc1ccc(C(C)NC(=O)C2CC(=O)N(c3ccc4c(c3)CCN4C(C)=O)C2)cc1 (stereo not drawn)
2. Cc1cc(=O)n(CC(=O)Nc2ccc(F)cc2Cl)c(N2CCOCC2)n1
3. COc1ccc(Cl)cc1NC(=O)CN1C(=O)C2CCCCN2c2ccc(C(=O)N3CCCC3)cc21 (stereo not drawn)
4. COc1ccc(-c2nnc(-c3cccc(S(=O)(=O)N4CCCCCC4)c3)o2)cc1OC

688
672
934
1020

Report RP-LC retention time for each item below.
1. O=C(O)c1cccn2c(=O)c3ccccc3nc12
2. Cc1cc(F)ccc1NC(=O)C1CCN(S(=O)(=O)c2cc(C(=O)N3CCOCC3)cs2)CC1
3. CCc1noc(C2(NC(=O)/C=C/c3ccccc3)CCCCC2)n1
4. O=C1CC(c2ccc(C(=O)O)cc2)c2scc(-c3cccc(F)c3)c2N1 (stereo not drawn)
5. CC(C)n1c(=O)sc2cc(S(=O)(=O)N3CCC(C(=O)N(C)C4CCCCC4)CC3)ccc21
6. CN(CCNC(=O)c1ccc(CN2C(=O)CCn3nccc32)cc1)C1CCCCC1
7. CN1C(=O)c2ccccc2Oc2ccc(C(=O)N3CCCCC3)cc21

627
759
961
823
716
599
807

Working through the 4 compounds below one at a time, give RP-LC retention time for each.
1. O=C(Nc1cccc(Br)c1)N1C[C@H]2C[C@H](C1)[C@H]1CCCC(=O)N1C2
2. COc1ccc(-c2nc3n(n2)C2(CCCCC2)[C@@H]2CCCC[C@@H]2N3C(=O)C2CC2)cc1
3. CC(C)[C@H](NC(=O)CNC(=O)OC(C)(C)C)C(=O)N[C@H](C=O)C(C)C
4. Cc1cc(-c2csc(Nc3ccc(N(C)C)cc3)n2)ccc1F

708
682
749
767

Give RP-LC retention time for all compounds that follow.
1. CCS(=O)(=O)c1nc2ccc(NS(=O)(=O)c3c(C)cc(C)cc3C)cc2s1
2. COc1ccc2[nH]cc(CCN3CC(C(=O)Nc4ccccc4)CC3=O)c2c1 (stereo not drawn)
3. O=C(NC1CC1)C1CCN(c2nc3ccc(-c4cncnc4)nc3s2)CC1

1. 958
2. 748
3. 672
